Target: human hNET (Homo sapiens, UniProt P23975)
Construct: expressed in transfected cells; host or cells: MDCK-Net6 (MDCK cells, stably transfected)
Sequence (P23975 whole entry): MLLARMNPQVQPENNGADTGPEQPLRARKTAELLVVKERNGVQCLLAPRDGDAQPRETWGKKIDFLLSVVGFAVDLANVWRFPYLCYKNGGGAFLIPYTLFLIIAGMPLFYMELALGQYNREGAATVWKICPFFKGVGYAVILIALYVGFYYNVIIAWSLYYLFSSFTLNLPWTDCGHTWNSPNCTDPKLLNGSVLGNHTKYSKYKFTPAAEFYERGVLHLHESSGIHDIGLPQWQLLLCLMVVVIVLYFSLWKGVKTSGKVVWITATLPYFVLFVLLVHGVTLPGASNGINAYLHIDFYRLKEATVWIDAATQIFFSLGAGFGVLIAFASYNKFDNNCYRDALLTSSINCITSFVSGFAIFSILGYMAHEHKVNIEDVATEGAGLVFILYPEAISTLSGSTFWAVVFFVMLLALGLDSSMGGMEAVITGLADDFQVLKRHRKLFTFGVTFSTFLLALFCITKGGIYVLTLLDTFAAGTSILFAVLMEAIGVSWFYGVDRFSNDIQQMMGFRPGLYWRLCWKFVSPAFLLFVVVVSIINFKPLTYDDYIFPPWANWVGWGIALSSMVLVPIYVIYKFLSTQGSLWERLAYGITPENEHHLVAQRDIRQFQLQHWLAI
Assay: Norepinephrine (NE) uptake assay in MDCK-Net6 cells
Type: cell-based
Conditions: 1 μM test compound, [3H]NE uptake, read-out: % Inhibition @ 1 μM (hNET)
Counter-ions that a name gives are not always drawn.
measure: inhibition at 1 µM (%)

Completed entries (count: 8):
CN1CCN(CC(c2ccc(CCc3ccccc3)cc2)C2(O)CCCCC2)CC1 (stereo not drawn) [Example 410, dihydrochloride]    51
OC1(C(CN2CCNCC2)c2cccc(-c3cccc(OC(F)(F)F)c3)c2)CCCCC1 (stereo not drawn) [Example 248, dihydrochloride]    7
CN1CCN(CC(c2cccc(Oc3ccccc3)c2)C2(O)CCCCC2)CC1 (stereo not drawn) [Example 312, dihydrochloride]    57.3
COc1cc(C(CN2CCNCC2)C2(O)CCCCC2)ccc1OCc1ccc(Br)cc1F (stereo not drawn)    69
COc1cc(C(CN2CCNCC2)C2(O)CCCCC2)cc(Br)c1OCc1ccccc1 (stereo not drawn) [Example 390, dihydrochloride]    6
Oc1ccc(C(CN2CCNCC2)C2(O)CCCCC2)cc1OC(F)(F)F (stereo not drawn) [Example 400, dihydrochloride]    38
CC(C)(O)CN1CCN(CC(c2cccc(OC(F)(F)F)c2)C2(O)CCCCC2)CC1 (single isomer, unassigned) [Example 372, dihydrochloride]    37
CN1CCN(CC(c2ccc(OCc3ccc(C(F)(F)F)cc3)cc2)C2(O)CCCCC2)CC1 (stereo not drawn) [Example 437, dihydrochloride]    38

[a] OC1(C(CN2CCNCC2)c2cccc(-c3cccc(Cl)c3)c2)CCCCC1 (stereo not drawn) [Example 139, dihydrochloride]
[b] C[C@H](Oc1ccc(C(CN2CCN(C)CC2)C2(O)CCCCC2)cc1)c1ccccc1 (stereo partly drawn) [Example 470, dihydrochloride]
Between item a and item b , which reported inhibition at 1 µM is smaller? Use the label to indicate which entry you chose.
b

---

Molecular target: human hNET (Homo sapiens, UniProt P23975)
Construct: expressed in transfected cells; host or cells: MDCK-Net6 (MDCK cells, stably transfected)
Assay: Norepinephrine (NE) uptake assay in MDCK-Net6 cells
Type: cell-based
Settings: 1 μM test compound, [3H]NE uptake, read-out: % Inhibition @ 1 μM (hNET)
Where a name gives a salt, the structure may show the parent alone.
measure: inhibition at 1 µM (%)

CN1CCN(CC(c2ccc(OCc3ccccc3C(F)(F)F)c(Cl)c2)C2(O)CCCCC2)CC1 (stereo not shown) [Example 422, dihydrochloride]    20

[P] CN1CCN(CC(c2ccc(OCc3ccccc3C(F)(F)F)cc2)C2(O)CCCCC2)CC1 (stereo not shown) [Example 441, dihydrochloride]
[Q] OC1(C(CN2CCNCC2)c2ccc(OCc3cccc(C(F)(F)F)c3)cc2)CCCCC1 (stereo not shown) [Example 438, dihydrochloride]
Given the two records P and Q , choose the one whose inhibition at 1 µM value is lower. Your choice should be expressed through its label.
P

---

Molecular target: human hNET (Homo sapiens)
Construct: expressed in transfected cells; host or cells: MDCK-Net6 (MDCK cells, stably transfected)
Experiment: Norepinephrine (NE) uptake assay in MDCK-Net6 cells
Type: cell-based
Details: 1 μM test compound, [3H]NE uptake, read-out: % Inhibition @ 1 μM (hNET)
Counter-ions that a name gives are not always drawn.
measure: inhibition at 1 µM (%)

[I] OC1(C(CN2CCNCC2)c2ccc(-c3cccc(Cl)c3)cc2)CCCCC1 (centres unmarked) [Example 167, dihydrochloride]
[II] CC#Cc1ccc(C(CN2CCNCC2)C2(O)CCCCC2)cc1 (centres unmarked) [Example 164, dihydrochloride]
Param metric = inhibition at 1 µM; output whichever of I , II has the minimum value. Answer with the label corresponding to your selection.
I
(I: 25%, II: 56%)

---

Biological target: human hNET (Homo sapiens)
Construct: expressed in transfected cells; host or cells: MDCK-Net6 (MDCK cells, stably transfected)
Test: Norepinephrine (NE) uptake assay in MDCK-Net6 cells
Format: cell-based
Conditions: 1 μM test compound, [3H]NE uptake, read-out: % Inhibition @ 1 μM (hNET)
Structures can show the parent of a compound that is named as a salt.
measure: inhibition at 1 µM (%)

Reference set (5 entries):
N#Cc1ccccc1-c1ccc(C(CN2CCNCC2)C2(O)CCCCC2)cc1 (stereo not shown) [Example 290, dihydrochloride]    36
COc1cc(C(CN2CCNCC2)C2(O)CCCCC2)ccc1OCc1ccc2ccccc2c1 (stereo not shown) [Example 444, dihydrochloride]    98
OC1(C(CN2CCNCC2)c2ccc(OCc3cccc(C(F)(F)F)c3)c(Cl)c2)CCCCC1 (stereo not shown) [Example 423, dihydrochloride]    79
COc1ccc(C(CN2CCN(C)CC2)C2(O)CCCCC2)cc1-c1ccc(C(F)(F)F)cc1 (stereo not shown) [Example 257, dihydrochloride]    17
OC1(C(CN2CCNCC2)c2ccc(-c3ccc(Cl)c(Cl)c3)cc2)CCCCC1 (stereo not shown) [Example 173, dihydrochloride]    35

[a] OC1([C@H](CN2CCNCC2)c2cccc(Oc3ccccc3)c2)CCCCC1 (single isomer, unassigned) [Example 357, dihydrochloride]
[b] COc1ccc(C(CN2CCNCC2)C2(O)CCCCC2)cc1-c1ccc(Cl)c(Cl)c1 (stereo not shown) [Example 252, dihydrochloride]
Sort a and b by inhibition at 1 µM descending and give the first. Use the label to indicate which entry you chose.
a

---

Target: human hNET (Homo sapiens, UniProt P23975)
Construct: expressed in transfected cells; host or cells: MDCK-Net6 (MDCK cells, stably transfected)
Assay: Norepinephrine (NE) uptake assay in MDCK-Net6 cells
Type: cell-based
Conditions: MDCK-Net6, read-out: % Inhibition @ 1 μM (hNET), 1 μM test compound, [3H]NE uptake
Structures can show the parent of a compound that is named as a salt.
measure: inhibition at 1 µM (%)
Output spec: scalar in %, unitless text.

Fill in the blank: the reported inhibition at 1 µM of CN1CCN(C[C@@H](c2cccc(OC(F)(F)F)c2)C2(O)CCCCC2)CC1 [Example 246, dihydrochloride] is ____.
7.4

Requested read-out: inhibition at 1 µM. Entry: OC1(C(CN2CCNCC2)c2cccc(OC(F)(F)F)c2)CCCCC1 (stereo not drawn) [Example 23, dihydrochloride]
85

---

Target: human hNET (Homo sapiens, UniProt P23975)
Assay: Norepinephrine (NE) uptake assay in MDCK-Net6 cells
Settings: [3H]NE uptake, test range 1 to 10,000 nM
pEC50: −log10 of the molar value. Structures can show the parent of a compound that is named as a salt.
measure: pEC50

OC1(C(CN2CCNCC2)c2cccc(-c3ccc(Cl)c(Cl)c3)c2)CCCCC1 (centres unmarked) [Example 135, dihydrochloride]    6.20
OC1(C(CN2CCNCC2)c2cccc(-c3ccccc3)c2)CCCCC1 (centres unmarked) [Example 136, dihydrochloride]    6.00
OC1(C(CN2CCNCC2)c2ccc(OCc3ccccc3)cc2)CCCCC1 (centres unmarked) [Example 27, dihydrochloride]    6.33

[a] CN1CCN(C[C@H](c2ccc(OCc3ccccc3)cc2)C2(O)CCCCC2)CC1 [Example 411, dihydrochloride]
[b] CN1CCN(CC(c2cccc(C#N)c2)C2(O)CCCCC2)CC1 (centres unmarked) [Example 161, dihydrochloride]
Higher pEC50 between a and b ? Refer to your chosen entry by its label in the reply.
b
(b: 6.66, a: 6.32)

---

Target: human hNET (Homo sapiens, UniProt P23975)
Test: Norepinephrine (NE) uptake assay in MDCK-Net6 cells
Details: [3H]NE uptake, test range 1 to 10,000 nM
Where a name gives a salt, the structure may show the parent alone.
measure: EC50 (nM)

Below, 4 molecules whose answers are already recorded.
CN1CCN(CC(c2ccc(OCc3ccccc3)c(OC(F)(F)F)c2)C2(O)CCCCC2)CC1 (stereo not shown) [Example 408, dihydrochloride]    398
OC1(C(CN2CCNCC2)c2cccc(-c3ccccc3F)c2)CCCCC1 (stereo not shown) [Example 140, maleate]    870
N#Cc1cccc(-c2ccc(C(CN3CCNCC3)C3(O)CCCCC3)cc2)c1 (stereo not shown) [Example 168, dihydrochloride]    180
OC1(C(CN2CCNCC2)c2cccc(OC(F)(F)F)c2)CCCCC1 (stereo not shown) [Example 23, dihydrochloride]    350

[P] C=Cc1cccc(C(CN2CCNCC2)C2(O)CCCCC2)c1 (stereo not shown) [Example 162, dihydrochloride]
[Q] CN1CCN(C[C@@H](c2ccc(OCc3ccccc3)cc2)C2(O)CCCCC2)CC1 [Example 412, dihydrochloride]
[R] O=[N+]([O-])c1cccc(-c2ccc(C(CN3CCNCC3)C3(O)CCCCC3)cc2)c1 (stereo not shown) [Example 169, dihydrochloride]
Please rank these molecules by EC50 in descending order. Respond with an ordered listing of the labels, as requested.
R, P, Q
(R: 850 nM, P: 410 nM, Q: 138 nM)
